- Assay Method Text: soluble fraction after stress (log2 fold change); higher = more stays soluble; pooled small domains, quantitative proteomics
- Cond: stress: 50 degC
Observed Property: soluble fraction (log2)

INSERT INTO results (query_sequence, experimental_result) VALUES
  ('HMSENIQLQKEQLYQLIAQLPEQRQKIFRLHKIDNYSYQEISDFTGLSRKTIANHIYLAHQFILKKVKK', -3.25),
  ('HMGVTVDEVHRNFESGMNVVHKKFGAGVVDSFDEGKIRINFDGVIKVFIADVLINSGMLESVSYTH', -0.212),
  ('HMETKKEIIEAINELEEKYRNAIYLTSIEKLSYEETSKILGQSLSNTKNLIHRGKQQLRKILIKK', -0.214),
  ('HMLSPAQSLLLRTAARRPDGRVIPPDTLRGGARVKVLTSLLQRGWIEPVDGGHVLTDAGYAAIG', -0.353),
  ('HMITMWYYKKDGNIIGPASARKIASMRELGIITDSTPVSRKRNAKNWETFGGLSEKINLESSQWD', -1.9);
